Measured melting point accompanies every entry in the list below.
Square brackets hold non-standard residues; d marks the D form. Peptide text beside a SMILES is read from it. * marks the point of attachment. NHPhenethyl = c1ccc(CCN*)cc1; PhAc = O=C(Cc1ccccc1)*

Would you please look over these solved cases?
CC(NCc1ccc(Cl)cc1)C(=O)N[C@H](Cc1c[nH]c2ccccc12)C(=O)NCCc1ccccc1 (mixture of isomers) | 107 to 110 °C
O=C(CN1CCC(Cc2ccccc2)CC1)N[C@H](Cc1c[nH]c2ccccc12)C(=O)NCCc1ccccc1 | 73 to 75 °C
O=C(N/N=C/c1ccco1)N[C@H](Cc1c[nH]c2ccccc12)C(=O)NCCc1ccccc1 | 100 to 101 °C
O=C(NNCc1ccc(Cl)cc1)N[C@H](Cc1c[nH]c2ccccc12)C(=O)NCCc1ccccc1 | 75 to 80 °C

## Task # get_value(readout='melting point', item= C[C@H](NC(=O)Cc1ccccc1)C(=O)N[C@H](Cc1c[nH]c2ccccc12)C(=O)NCCc1ccccc1 [Example 2] (PhAc-Ala-[dW]-NHPhenethyl) )
## Result 205 to 207 °C

## Task // query: O=C(Cc1cccnc1)NNC(=O)N[C@H](Cc1c[nH]c2ccccc12)C(=O)NCCc1ccccc1
## Result 116 to 120 °C
